target_or_test_system: CYP3A4 (Homo sapiens)
Construct: purchased Invitrogen Corporation (Vivid CYP450 Screening Kit)
Sequence (P08684 whole entry): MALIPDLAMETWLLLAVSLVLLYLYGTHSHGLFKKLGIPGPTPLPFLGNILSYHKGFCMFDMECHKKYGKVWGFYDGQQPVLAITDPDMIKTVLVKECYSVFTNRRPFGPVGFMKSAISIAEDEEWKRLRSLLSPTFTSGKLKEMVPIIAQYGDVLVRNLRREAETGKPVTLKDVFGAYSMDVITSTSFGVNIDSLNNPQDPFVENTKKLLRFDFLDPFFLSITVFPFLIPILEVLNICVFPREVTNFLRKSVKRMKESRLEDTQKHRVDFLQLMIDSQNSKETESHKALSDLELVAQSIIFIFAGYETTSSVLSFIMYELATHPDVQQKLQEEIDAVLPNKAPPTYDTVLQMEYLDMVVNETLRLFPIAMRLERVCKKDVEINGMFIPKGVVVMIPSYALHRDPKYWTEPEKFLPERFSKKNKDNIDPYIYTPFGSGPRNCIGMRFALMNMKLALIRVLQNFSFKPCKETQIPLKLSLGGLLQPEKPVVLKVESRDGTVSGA
procedure_details: Cytochrome P450 (CYP450) inhibition assay, fluorescence-based
Format: in vitro ADME
assay_setup: recombinant CYP3A4 (P450 Baculosomes), probe Vivid substrate (fluorogenic)
reported_endpoint: inhibition at 10 µM

The examples below pair each entry with its known result.
> print(dat)
                                   compound  target.or.test.system    reported.endpoint  result
1  O=C1N(Cc2ccc(OCCO)cc2)c2ccccc2C12COc1cc3c(cc12)OCCO3 (centres unmarked)  CYP3A4 (Homo sapiens)  inhibition at 10 µM   < 50%
2  N/C(CN1C(=O)C2(COc3cc4c(cc32)OCO4)c2ccccc21)=N\O (centres unmarked)  CYP3A4 (Homo sapiens)  inhibition at 10 µM   > 50%
3  CN(C)CCOc1ccc2c(c1)OCC21C(=O)N(C[C@H]2CCCO2)c2ccccc21 (some centres unmarked)  CYP3A4 (Homo sapiens)  inhibition at 10 µM   < 50%

Lookup: # inhibition at 10 µM lookup, item C[S+]([O-])c1ccc(CN2C(=O)C3(COc4cc5c(cc43)CCO5)c3ccccc32)cc1 (centres unmarked)
Found: > 50%

Lookup: # inhibition at 10 µM lookup, item CCOC(=O)COc1ccc(CN2C(=O)C3(COc4cc5c(cc43)CCO5)c3ccccc32)cc1 (centres unmarked)
Found: < 50%

Reference source: patent US8101647B2
